# EC50 values compiled below
assay-method-text: Cytotoxicity against human EAhy926 cells assessed as reduction in cell viability after 72 hrs by MTT assay
Format: cell-based
run-conditions: EA.hy 926, 72 h

compound	comparison-symbol	EC50 / µM
Cc1cnc(N/N=C2\C(=O)Oc3ccccc3C2=O)s1	=	77.3
O=C1Oc2ccccc2C(=O)/C1=N/Nc1nccs1	=	96.5
Cc1cc(N/N=C2\C(=O)Oc3ccccc3C2=O)no1	=	150
Cc1nc(N/N=C2\C(=O)Oc3ccccc3C2=O)sc1C	=	72.8
CC(C)(C)c1cc(N/N=C2\C(=O)Oc3ccccc3C2=O)no1	=	150
O=C1Oc2ccccc2C(=O)/C1=N/Nc1ncc(Br)s1	=	156
O=c1cc(O)c2ccccc2o1 [4-HYDROXYCOUMARINS]	>	200
O=C1Oc2ccccc2C(=O)/C1=N/Nc1nnc[nH]1	=	95.1
